Kindly supply the reported inhibition at 0.1 µM values for the records listed here.
Target Of Assay: 5-HT2B receptor (Homo sapiens)
Construct: host or cells: CHO-K1
Protocol Description: 5-HT2B receptor binding, 3H-LSD ligand displacement assay
Study Conditions: 0.1 uM compound
Number in %, nothing else.

### Prompt State the recorded inhibition at 0.1 µM for this entry: CC1CN(C(=N)NCc2ccccc2)N=C1c1ccccc1O (stereo not shown) [Example 42]
### Response 98

### Prompt State the recorded inhibition at 0.1 µM for this entry: COc1ccc(F)cc1C1=NN(C(=N)N)CC1C (stereo not shown) [Example 45]
### Response 54

### Prompt State the recorded inhibition at 0.1 µM for this entry: CC1CN(C(=N)N)N=C1c1ccc(O)cc1O (stereo not shown) [Example 67]
### Response 31

### Prompt State the recorded inhibition at 0.1 µM for this entry: COc1ccc(Cl)cc1C1=NN(C(=N)N)CC1C (stereo not shown) [Example 51]
### Response 31

### Prompt State the recorded inhibition at 0.1 µM for this entry: N=C(N)N1CCC(c2ccccc2C(F)(F)F)=N1 [Example 13]
### Response 34

### Prompt State the recorded inhibition at 0.1 µM for this entry: CC1CN(C(=N)N)N=C1c1cccc2ccccc12 (stereo not shown) [Example 24]
### Response 86

### Prompt State the recorded inhibition at 0.1 µM for this entry: COc1c(Cl)cccc1C1=NN(C(=N)Nc2ccc(Cl)cc2)CC1C (stereo not shown) [Example 110]
### Response 97

### Prompt State the recorded inhibition at 0.1 µM for this entry: COc1cccc(Cl)c1C1=NN(C(=N)N)CC1 [Example 33]
### Response 5

### Prompt State the recorded inhibition at 0.1 µM for this entry: COc1ccccc1C1=NN(C(=N)Nc2ccccc2)CC1C (stereo not shown) [Example 96]
### Response 93

### Prompt State the recorded inhibition at 0.1 µM for this entry: C[C@H]1CN(C(=N)NCc2ccccc2)N=C1c1cccc(Cl)c1O (single isomer, unassigned) [Example 77]
### Response 88

---

Target Of Assay: 5-HT2B receptor (Homo sapiens)
Construct: host or cells: CHO-K1
Protocol Description: 5-HT2B receptor agonism, IP-1 accumulation in CHO-K1 cells without prior 5-HT stimulation
Assay type: cell-based
Study Conditions: 0.1 uM, % of IP-1 accumulation induced by 5-HT (1 uM)
Kindly supply the reported activation at 0.1 µM values for the records listed here.
Number in %, nothing else.

### Prompt State the recorded activation at 0.1 µM for this entry: C[C@@H]1CN(C(=N)N)N=C1c1ccccc1O (single isomer, unassigned)
### Response 0

### Prompt State the recorded activation at 0.1 µM for this entry: COc1ccccc1C1=NN(C(=N)N)CC1
### Response -8

### Prompt State the recorded activation at 0.1 µM for this entry: N=C(NCc1ccccc1)N1CCC(c2ccccc2Cl)=N1
### Response -9

### Prompt State the recorded activation at 0.1 µM for this entry: Cl.N=C(N)N1CCC(c2ccccc2O)=N1
### Response -2

### Prompt State the recorded activation at 0.1 µM for this entry: C[C@@H]1CN(C(=N)NCc2ccccc2)N=C1c1cccc(Cl)c1O (single isomer, unassigned)
### Response -1

### Prompt State the recorded activation at 0.1 µM for this entry: N=C(NCc1ccccc1)N1CCC(c2ccccc2O)=N1
### Response -1

### Prompt State the recorded activation at 0.1 µM for this entry: C[C@@H]1CN(C(=N)N)N=C1c1cccc(Cl)c1O (single isomer, unassigned)
### Response 3

### Prompt State the recorded activation at 0.1 µM for this entry: CC1CN(C(=N)N)N=C1c1ccccc1O.Cl (stereo not drawn)
### Response 7

### Prompt State the recorded activation at 0.1 µM for this entry: N=C(N)N1CCC(c2cccc3ccccc23)=N1
### Response -8

---

Target Of Assay: 5-HT2B receptor (Homo sapiens, UniProt P41595)
Construct: host or cells: CHO-K1
Sequence (P41595 whole entry): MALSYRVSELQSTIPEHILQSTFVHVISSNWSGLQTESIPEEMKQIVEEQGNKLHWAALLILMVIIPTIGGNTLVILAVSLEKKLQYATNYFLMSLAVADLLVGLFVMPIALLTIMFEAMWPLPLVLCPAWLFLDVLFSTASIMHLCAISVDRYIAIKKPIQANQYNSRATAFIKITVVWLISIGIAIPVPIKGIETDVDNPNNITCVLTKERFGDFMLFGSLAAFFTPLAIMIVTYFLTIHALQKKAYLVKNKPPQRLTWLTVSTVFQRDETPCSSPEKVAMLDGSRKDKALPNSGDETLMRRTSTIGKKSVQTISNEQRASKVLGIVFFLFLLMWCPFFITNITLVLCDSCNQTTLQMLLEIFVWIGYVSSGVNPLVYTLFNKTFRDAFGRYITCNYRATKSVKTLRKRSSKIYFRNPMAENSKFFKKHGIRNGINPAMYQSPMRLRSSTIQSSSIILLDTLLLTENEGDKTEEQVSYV
Protocol Description: 5-HT2B receptor binding, 3H-LSD ligand displacement assay
Study Conditions: 0.001 uM compound
Kindly supply the reported inhibition at 0.001 µM values for the records listed here.
Number in %, nothing else.

### Prompt Missing value: inhibition at 0.001 µM, 5-HT2B receptor (Homo sapiens, UniProt P41595), entry CC1CN(C(=N)NC#N)N=C1c1cccc(Cl)c1O (stereo not drawn) [Example 91] . Fill in?
### Response -15

### Prompt Missing value: inhibition at 0.001 µM, 5-HT2B receptor (Homo sapiens, UniProt P41595), entry CCCCCCNC(=N)N1CC(C)C(c2cccc(Cl)c2OC)=N1 (stereo not drawn) [Example 80] . Fill in?
### Response 13

### Prompt Missing value: inhibition at 0.001 µM, 5-HT2B receptor (Homo sapiens, UniProt P41595), entry CC1CN(C(=N)Nc2ccc(F)cc2)N=C1c1cccc(Cl)c1O (stereo not drawn) [Example 109] . Fill in?
### Response 72

### Prompt Missing value: inhibition at 0.001 µM, 5-HT2B receptor (Homo sapiens, UniProt P41595), entry COc1c(Cl)cccc1C1=NN(C(=N)NC2CC2)CC1C (stereo not drawn) [Example 86] . Fill in?
### Response -14

### Prompt Missing value: inhibition at 0.001 µM, 5-HT2B receptor (Homo sapiens, UniProt P41595), entry CC1CN(C(=N)Nc2ccc(Cl)cc2)N=C1c1ccccc1O (stereo not drawn) [Example 103] . Fill in?
### Response 42

### Prompt Missing value: inhibition at 0.001 µM, 5-HT2B receptor (Homo sapiens, UniProt P41595), entry COc1ccccc1C1=NN(C(=N)NCC(F)(F)C(F)(F)C(F)(F)F)CC1C (stereo not drawn) [Example 92] . Fill in?
### Response -3

### Prompt Missing value: inhibition at 0.001 µM, 5-HT2B receptor (Homo sapiens, UniProt P41595), entry CC1CN(C(=N)NC2CC2)N=C1c1cccc(Cl)c1O (stereo not drawn) [Example 87] . Fill in?
### Response 24

### Prompt Missing value: inhibition at 0.001 µM, 5-HT2B receptor (Homo sapiens, UniProt P41595), entry COc1ccccc1C1=NN(C(=N)Nc2ccc(C(F)(F)F)cc2)CC1C (stereo not drawn) [Example 98] . Fill in?
### Response 5

### Prompt Missing value: inhibition at 0.001 µM, 5-HT2B receptor (Homo sapiens, UniProt P41595), entry CC1CN(C(=N)NCC(F)(F)C(F)(F)C(F)(F)F)N=C1c1ccccc1O (stereo not drawn) [Example 93] . Fill in?
### Response 21

---

Target Of Assay: 5-HT2B receptor (Homo sapiens, UniProt P41595)
Construct: host or cells: CHO-K1
Protocol Description: 5-HT2B receptor binding, 3H-LSD ligand displacement assay
Study Conditions: 0.01 uM compound
Readout Label: inhibition at 0.01 µM (%)
Number in %, nothing else.

### Prompt State the recorded inhibition at 0.01 µM for this entry: COc1c(Cl)cccc1C1=NN(C(=N)Nc2ccc(Cl)cc2)CC1C (centres unmarked)
### Response 83

### Prompt State the recorded inhibition at 0.01 µM for this entry: COc1c(Cl)cccc1C1=NN(C(=N)NC#N)CC1C (centres unmarked)
### Response 1

### Prompt State the recorded inhibition at 0.01 µM for this entry: CC1CN(C(=N)NCc2ccc(Cl)c(Cl)c2)N=C1c1ccccc1O (centres unmarked)
### Response 52

### Prompt State the recorded inhibition at 0.01 µM for this entry: CC1CN(C(=N)N)N=C1c1ccnc2ccccc12 (centres unmarked)
### Response 11

### Prompt State the recorded inhibition at 0.01 µM for this entry: CC1CN(C(=N)NC#N)N=C1c1cccc(Cl)c1O (centres unmarked)
### Response 27

### Prompt State the recorded inhibition at 0.01 µM for this entry: CC1CN(C(=N)NC2CCCCC2)N=C1c1cccc(Cl)c1O (centres unmarked)
### Response 93

### Prompt State the recorded inhibition at 0.01 µM for this entry: CCCCCCCCCCCCNC(=N)N1CC(C)C(c2cccc(Cl)c2OC)=N1 (centres unmarked)
### Response -4

### Prompt State the recorded inhibition at 0.01 µM for this entry: COc1c(Cl)cccc1C1=NN(C(=N)N)CC1C (centres unmarked)
### Response 40

### Prompt State the recorded inhibition at 0.01 µM for this entry: CC1CN(C(=N)N[C@H](C)c2ccccc2)N=C1c1ccccc1O (some centres unmarked)
### Response 81

### Prompt State the recorded inhibition at 0.01 µM for this entry: CCCCCCCCCCCCNC(=N)N1CC(C)C(c2cccc(Cl)c2O)=N1 (centres unmarked)
### Response 23

### Prompt State the recorded inhibition at 0.01 µM for this entry: CC1CN(C(=N)N)N=C1c1c[nH]c2ccccc12 (centres unmarked)
### Response 38

### Prompt State the recorded inhibition at 0.01 µM for this entry: COc1ccc(C2=NN(C(=N)N)CC2C)c(OC)c1 (centres unmarked)
### Response 5

### Prompt State the recorded inhibition at 0.01 µM for this entry: CC1CN(C(=N)Nc2ccccc2)N=C1c1ccccc1O (centres unmarked)
### Response 99

### Prompt State the recorded inhibition at 0.01 µM for this entry: CC1CN(C(=N)Nc2ccccc2)N=C1c1cccc(Cl)c1O (centres unmarked)
### Response 100

### Prompt State the recorded inhibition at 0.01 µM for this entry: CNC(=N)N1CC(C)C(c2ccccc2O)=N1 (centres unmarked)
### Response 42

### Prompt State the recorded inhibition at 0.01 µM for this entry: COc1ccccc1C1=NN(C(=N)Nc2ccc(F)cc2)CC1C (centres unmarked)
### Response 27

### Prompt State the recorded inhibition at 0.01 µM for this entry: CC1CN(C(=N)Nc2ccc(C(F)(F)F)cc2)N=C1c1ccccc1O (centres unmarked)
### Response 89

### Prompt State the recorded inhibition at 0.01 µM for this entry: COc1ccc(NC(=N)N2CC(C)C(c3ccccc3OCc3ccccc3)=N2)cc1 (centres unmarked)
### Response 33

### Prompt State the recorded inhibition at 0.01 µM for this entry: CC1CN(C(=N)NCc2ccc(Cl)cc2Cl)N=C1c1ccccc1O (centres unmarked)
### Response 78

### Prompt State the recorded inhibition at 0.01 µM for this entry: CC1CN(C(=N)N)N=C1c1cccc2ccccc12 (centres unmarked)
### Response 39
